System: Pseudomonas aeruginosa PA14
Experiment: Inhibition of quorum sensing-regulated biofilm formation in Pseudomonas aeruginosa PA14 at 2 mM after overnight incubation by crystal violet staining based assay relative to control
parameter: inhibition (%)

| smi | experimental_system | observed_value |
| --- | --- | --- |
| CC(=O)OC[C@H]1O[C@@H](OC(C)=O)[C@H](NC(=O)Cc2ccc(Cl)cc2)[C@@H](OC(C)=O)[C@@H]1OC(C)=O | Pseudomonas aeruginosa PA14 | 17.8 |
| CCCCCC(=O)N[C@@H]1[C@@H](O)[C@H](O)[C@@H](CO)O[C@H]1O | Pseudomonas aeruginosa PA14 | 9 |
| O=C(Cc1ccc(Br)cc1)N[C@@H]1[C@@H](O)[C@H](O)[C@@H](CO)O[C@H]1O | Pseudomonas aeruginosa PA14 | 17.3 |
| CCCCCCCCCCCC(=O)N[C@H]1[C@H](OC(C)=O)O[C@H](COC(C)=O)[C@@H](OC(C)=O)[C@@H]1OC(C)=O | Pseudomonas aeruginosa PA14 | 3.5 |
| CCCCCCCCCC(=O)N[C@H]1[C@H](OC(C)=O)O[C@H](COC(C)=O)[C@@H](OC(C)=O)[C@@H]1OC(C)=O | Pseudomonas aeruginosa PA14 | 46.9 |
| COc1ccc(CC(=O)N[C@@H]2[C@@H](O)[C@H](O)[C@@H](CO)O[C@H]2O)cc1 | Pseudomonas aeruginosa PA14 | 16.6 |

---

Test system: Escherichia coli
Assay: Inhibition of LuxR-dependent quorum sensing activity in Escherichia coli MT102 harboring pJBA132 assessed as inhibition of OHHL-induced GFP expression at 2 mM measured after 8 hrs by fluorescence assay relative to control
Quick reference for inhibition among some compounds

| smi | inhibition [%] |
| --- | --- |
| CC(=O)OC[C@H]1O[C@@H](OC(C)=O)[C@H](NC(=O)Cc2ccc(F)cc2)[C@@H](OC(C)=O)[C@@H]1OC(C)=O | 17.1 |
| O=C(Cc1ccc(F)cc1)N[C@@H]1[C@@H](O)[C@H](O)[C@@H](CO)O[C@H]1O | 12.6 |
| CC(=O)OC[C@H]1O[C@@H](OC(C)=O)[C@H](NC(=O)CCc2c[nH]c3ccccc23)[C@@H](OC(C)=O)[C@@H]1OC(C)=O | 65.5 |
| CCCCCC(=O)N[C@H]1[C@H](OC(C)=O)O[C@H](COC(C)=O)[C@@H](OC(C)=O)[C@@H]1OC(C)=O | 11.6 |
| CCCCCCCC(=O)N[C@H]1[C@H](OC(C)=O)O[C@H](COC(C)=O)[C@@H](OC(C)=O)[C@@H]1OC(C)=O | 36 |
| O=C(Cc1ccc(C(F)(F)F)cc1)N[C@@H]1[C@@H](O)[C@H](O)[C@@H](CO)O[C@H]1O | 12.8 |
| CCCCCCCCCCCC(=O)N[C@H]1[C@H](OC(C)=O)O[C@H](COC(C)=O)[C@@H](OC(C)=O)[C@@H]1OC(C)=O | 1.8 |

---

System: Escherichia coli
Assay: Inhibition of LuxR-dependent quorum sensing activity in Escherichia coli MT102 harboring pJBA132 assessed as inhibition of OHHL-induced GFP expression at 500 uM measured after 8 hrs by fluorescence assay relative to control
Please note: true applies when inhibition is 8% or greater, and false applies otherwise.

| smi | experimental_system | assigned_class |
| --- | --- | --- |
| CC(=O)OC[C@H]1O[C@@H](OC(C)=O)[C@H](NC(=O)CCc2c[nH]c3ccccc23)[C@@H](OC(C)=O)[C@@H]1OC(C)=O | Escherichia coli | true |
| O=C(Cc1ccc(Br)cc1)N[C@@H]1[C@@H](O)[C@H](O)[C@@H](CO)O[C@H]1O | Escherichia coli | true |
| O=C(Cc1ccc(F)cc1)N[C@@H]1[C@@H](O)[C@H](O)[C@@H](CO)O[C@H]1O | Escherichia coli | false |
| O=C(Cc1ccc(Cl)cc1)N[C@@H]1[C@@H](O)[C@H](O)[C@@H](CO)O[C@H]1O | Escherichia coli | false |
| O=C(CCCc1ccccc1)N[C@@H]1[C@@H](O)[C@H](O)[C@@H](CO)O[C@H]1O | Escherichia coli | true |
| CC(=O)OC[C@H]1O[C@@H](OC(C)=O)[C@H](NC(=O)Cc2ccc(C(F)(F)F)cc2)[C@@H](OC(C)=O)[C@@H]1OC(C)=O | Escherichia coli | true |
| CC(=O)OC[C@H]1O[C@@H](OC(C)=O)[C@H](NC(=O)Cc2ccc(Br)cc2)[C@@H](OC(C)=O)[C@@H]1OC(C)=O | Escherichia coli | true |
| COc1ccc(CC(=O)N[C@H]2[C@H](OC(C)=O)O[C@H](COC(C)=O)[C@@H](OC(C)=O)[C@@H]2OC(C)=O)cc1 | Escherichia coli | false |

---

System: Pseudomonas aeruginosa
Test: Inhibition of LasR-dependent quorum sensing activity in Pseudomonas aeruginosa MH602 harboring GFP-fused […] LasB promoter assessed as inhibition of 3-oxo-dodecanoyl HSL-induced GFP expression at 2 mM measured after 8 hrs by fluorescence assay relative to control
Hi, to clarify the labels: Satisfied covers inhibition from 20% upward, Not satisfied covers anything below 20%.

| smi | assigned_class |
| --- | --- |
| COc1ccc(CC(=O)N[C@H]2[C@H](OC(C)=O)O[C@H](COC(C)=O)[C@@H](OC(C)=O)[C@@H]2OC(C)=O)cc1 | Not satisfied |
| CCCCCCCCCC(=O)N[C@@H]1[C@@H](O)[C@H](O)[C@@H](CO)O[C@H]1O | Not satisfied |
| CC(=O)N[C@@H]1[C@@H](O)[C@H](O)[C@@H](CO)O[C@H]1O | Satisfied |
| CC(=O)OC[C@H]1O[C@@H](OC(C)=O)[C@H](NC(=O)CCCc2ccccc2)[C@@H](OC(C)=O)[C@@H]1OC(C)=O | Not satisfied |
| COc1ccc(CC(=O)N[C@@H]2[C@@H](O)[C@H](O)[C@@H](CO)O[C@H]2O)cc1 | Not satisfied |
| O=C(Cc1ccc(C(F)(F)F)cc1)N[C@@H]1[C@@H](O)[C@H](O)[C@@H](CO)O[C@H]1O | Not satisfied |
| CC(=O)OC[C@H]1O[C@@H](OC(C)=O)[C@H](NC(=O)Cc2ccc(F)cc2)[C@@H](OC(C)=O)[C@@H]1OC(C)=O | Not satisfied |
| CCCCCC(=O)CC(=O)N[C@H]1[C@H](OC(C)=O)O[C@H](COC(C)=O)[C@@H](OC(C)=O)[C@@H]1OC(C)=O | Not satisfied |
| CCCCCC(=O)N[C@H]1[C@H](OC(C)=O)O[C@H](COC(C)=O)[C@@H](OC(C)=O)[C@@H]1OC(C)=O | Not satisfied |
| CCCC(=O)N[C@@H]1[C@@H](O)[C@H](O)[C@@H](CO)O[C@H]1O | Satisfied |
| CC(=O)OC[C@H]1O[C@@H](OC(C)=O)[C@H](NC(=O)CCc2c[nH]c3ccccc23)[C@@H](OC(C)=O)[C@@H]1OC(C)=O | Satisfied |
| CCCC(=O)N[C@H]1[C@H](OC(C)=O)O[C@H](COC(C)=O)[C@@H](OC(C)=O)[C@@H]1OC(C)=O | Not satisfied |
| CC(=O)OC[C@H]1O[C@@H](OC(C)=O)[C@H](NC(=O)Cc2ccc(Br)cc2)[C@@H](OC(C)=O)[C@@H]1OC(C)=O | Not satisfied |
| CCCCCCCC(=O)N[C@@H]1[C@@H](O)[C@H](O)[C@@H](CO)O[C@H]1O | Satisfied |
| O=C(Cc1ccc(F)cc1)N[C@@H]1[C@@H](O)[C@H](O)[C@@H](CO)O[C@H]1O | Satisfied |
| CCCC(=O)CC(=O)N[C@H]1[C@H](OC(C)=O)O[C@H](COC(C)=O)[C@@H](OC(C)=O)[C@@H]1OC(C)=O | Satisfied |
| O=C(CCCc1ccccc1)N[C@@H]1[C@@H](O)[C@H](O)[C@@H](CO)O[C@H]1O | Satisfied |
| CC(=O)OC[C@H]1O[C@@H](OC(C)=O)[C@H](NC(=O)CC(=O)CCCc2ccccc2)[C@@H](OC(C)=O)[C@@H]1OC(C)=O | Satisfied |
| CCCCCC(=O)N[C@@H]1[C@@H](O)[C@H](O)[C@@H](CO)O[C@H]1O | Not satisfied |
| O=C(Cc1ccc(Br)cc1)N[C@@H]1[C@@H](O)[C@H](O)[C@@H](CO)O[C@H]1O | Not satisfied |

---

inhibition listing for selected molecules.
Test system: Escherichia coli
Experiment: Inhibition of LuxR-dependent quorum sensing activity in Escherichia coli MT102 harboring pJBA132 assessed as inhibition of OHHL-induced GFP expression at 500 uM measured after 24 hrs by fluorescence assay relative to control

| smi | experimental_system | inhibition / % |
| --- | --- | --- |
| COc1ccc(CC(=O)N[C@@H]2[C@@H](O)[C@H](O)[C@@H](CO)O[C@H]2O)cc1 | Escherichia coli | 16 |
| O=C(CCCc1ccccc1)N[C@@H]1[C@@H](O)[C@H](O)[C@@H](CO)O[C@H]1O | Escherichia coli | 4.3 |
| CC(=O)OC[C@H]1O[C@@H](OC(C)=O)[C@H](NC(=O)Cc2ccc(Br)cc2)[C@@H](OC(C)=O)[C@@H]1OC(C)=O | Escherichia coli | 8.5 |
| CC(=O)N[C@@H]1[C@@H](O)[C@H](O)[C@@H](CO)O[C@H]1O | Escherichia coli | 18.8 |
